assayed_target: Shiga toxin 2 (Escherichia coli O157:H7) (UniProt P09385+P09386)
protocol_notes: E. coli 0.157:H7 Shiga Toxin SOP - stx2 screening assay
Type: functional
Set-up: scale not given: direction of the effect not stated beside the values
reported_conditions: 30 µM
I'd be grateful if you could share measured Percent Effect for these entries.
Note: unit % is implicit; provide only the numeric part.

Fill in Percent Effect for CCOc1ncccc1NC(=O)NCC(O)c1ccccc1OC (configuration not stated) tested with Shiga toxin 2 (Escherichia coli O157:H7) (UniProt P09385+P09386).
-2.67

Given Cn1ccnc1CN1CCCCC1Cn1cccn1 (configuration not stated) , report its Percent Effect on Shiga toxin 2 (Escherichia coli O157:H7) (UniProt P09385+P09386).
11.2

Enter measured Percent Effect, system Shiga toxin 2 (Escherichia coli O157:H7) (UniProt P09385+P09386), for the compound shown: O=C(O)c1cc(S(=O)(=O)Nc2cc(F)ccc2F)cc2c1OCCO2
31.1

Return reported Percent Effect for target or system Shiga toxin 2 (Escherichia coli O157:H7) (UniProt P09385+P09386), item Cc1ccc(CN2CCCn3nnc(COCC4CC4)c3C2)s1 .
0.0593

Provide Shiga toxin 2 (Escherichia coli O157:H7) (UniProt P09385+P09386) Percent Effect reading for COc1ccc(C2CC(=O)Nc3c2nc2n3CCCC2)cc1O (configuration not stated) .
-3.52

Supply Percent Effect measured with Shiga toxin 2 (Escherichia coli O157:H7) (UniProt P09385+P09386) for c1ncn(CC2CCCN2Cc2cn3ccsc3n2)n1 (configuration not stated) .
-3.31

// fetch Percent Effect; item: CSc1ncccc1C(=O)NCc1ccc(CS(=O)(=O)NC(C)C)cc1 ; system: Shiga toxin 2 (Escherichia coli O157:H7) (UniProt P09385+P09386)
6.55

Give measured Percent Effect for Cc1ccc2oc(CNC(C)c3nnc4n3CCCC4)cc2c1 (configuration not stated) (Shiga toxin 2 (Escherichia coli O157:H7) (UniProt P09385+P09386)).
-34.3

Under Shiga toxin 2 (Escherichia coli O157:H7) (UniProt P09385+P09386), report Percent Effect for CCCNC(=O)NCc1cccnc1OC
-26.6

Look up and report measured Percent Effect (Shiga toxin 2 (Escherichia coli O157:H7) (UniProt P09385+P09386)) for the following compound: COCCN1CCN(Cc2ccc(F)c(C)c2)[C@H]2CS(=O)(=O)C[C@H]21
-5.44

Please report Percent Effect with Shiga toxin 2 (Escherichia coli O157:H7) (UniProt P09385+P09386) for item NC(=O)CN1CCCN(C(=O)Cc2ccc3c(c2)OCO3)CC1 .
-21.4

// fetch Percent Effect; item: CC(C)c1noc(C(C)N2CCN(CCO)CC2)n1 (configuration not stated) ; system: Shiga toxin 2 (Escherichia coli O157:H7) (UniProt P09385+P09386)
16.1

---

assayed_target: Shiga toxin 2 (Escherichia coli O157:H7) (UniProt P09385+P09386)
protocol_notes: E. coli 0.157:H7 Shiga Toxin SOP - stx2 screening assay
Format: functional
Parameters: scale not given: direction of the effect not stated beside the values
reported_conditions: 30 µM
property_name: Percent Effect (%)
Note: unit % is implicit; provide only the numeric part.

Tell us which Percent Effect value is on record for CCc1cccc(N2CCC(NC(=O)c3ccc(=O)[nH]n3)CC2)c1
-1.12

Please give the documented Percent Effect of CC(O)CN1CCC(CNCc2ccccc2Br)CC1 (centres undefined)
-20.4

Return reported Percent Effect. Input molecule: COCc1noc(C2(c3ccc(F)cc3)CCOCC2)n1
-10.8

Provide measured Percent Effect value, entry: Cc1nn(C)c2c(NCCCn3cccn3)ncnc12
-37.5

Quote Percent Effect reported for Cc1nn(C)cc1CN(C)Cc1cc2c(cc1OC(F)F)OCO2 please.
-11.3

Return value of Percent Effect for input Cc1nn(C)c(C)c1C1COCCN1C(=O)Cc1cccc(F)c1 (centres undefined) , no commentary.
-31

Look up and state reported Percent Effect for CCCNC(=O)NC(=O)CN(CC(C)O)c1ccccc1 (centres undefined)
20.6

Complete the entry with Percent Effect for Cn1cnc2c1C(COCC1CC1)CN(Cc1ccsc1)C2 (centres undefined)
-1.62

Check the records and state Percent Effect for O=C1[C@H]2CN(CC3CC3)C[C@H]2CN1c1ccsc1
-5.46

Return Percent Effect (reported value) for this molecule: O=C(NS(=O)(=O)c1ccc2c(c1)OCCO2)c1ccc(Br)cc1F
8.44

Look up and state reported Percent Effect for CCn1nnc2c1C(COC)CN(Cc1cccs1)C2 (centres undefined)
5.25

Give me measured Percent Effect, please, for this molecule: Cc1ccc(CNC(=O)Cn2ncc3c2c(C)nn3C)cc1
-20.9

Give Percent Effect for c1ccc(CN2CCc3nnc(CN4CCCCC4)n3CC2)nc1
1.8

Check the records and state Percent Effect for CCCc1nc(CN2CCN(CC(O)c3ccccc3)CC2)no1 (centres undefined)
-3.05

Please look at this molecule and report its Percent Effect: CNCC(=O)N1CC(c2cc(Nc3ncccn3)nc(C)n2)C1
-3.14

State its Percent Effect: O=C([C@H]1C[C@H]2OCC[C@H]2N(CCc2ccccc2)C1)N1CCCCO1
6.49

State its Percent Effect: Cn1ncc2c1NC(=O)CC2c1ccccc1Cl (centres undefined)
6

Quote Percent Effect reported for OC(CNCCn1cccn1)c1ccc(F)c(F)c1 (centres undefined) please.
-25.7

Specify Percent Effect for CNC(=O)C1Cn2ccnc2C2(CCN(Cc3cccnc3)CC2)O1 (centres undefined) and stop.
3.87

Return Percent Effect for the following molecule: Cc1cc(C(=O)N2CCc3nnc(N(C)C)cc3C2)c(C)n1C1CC1
-0.445

Supply measured Percent Effect of CCn1ccc(C(=O)NCCCN2CCOCC2)n1 in your reply.
-55.1

Respond only with Percent Effect recorded for Cc1ccc(OCC(=O)NS(=O)(=O)c2cccnc2)cc1C
26.6

Retrieve Percent Effect measured for O=C(NCCOc1ccc(F)c(F)c1)NCc1cccc(CO)c1 and print it.
-6.88

Answer with the recorded Percent Effect of Cc1cnccc1CN1C[C@@H](O)[C@H](Oc2cccc(F)c2)C1 only.
-1.74

Look up Percent Effect of CCCN1C(=O)CC2(CCCNC2)C1=O (centres undefined) and report it.
2.28

Provide Percent Effect value for the following molecule: Cc1ccc(-c2nc(CN3CCc4c(ncn4C)C3)cs2)o1
0.313

// Input: CC(=O)Nc1nc(C(=O)NCc2ccc(N3CCCCCC3)nc2)cs1 . Output its Percent Effect only.
-131

Report Percent Effect, nothing else, for this molecule: CCCn1nc2c(cc1=O)CN(Cc1cc(C)on1)CC2
-9.16

Please give the documented Percent Effect of CN(C)CC1CN(Cc2cccc(C(=O)N(C)C)c2)CCO1 (centres undefined)
-24.2

# return recorded Percent Effect for input Nc1nccc(N2CCC(Cc3ccccc3Cl)(C(=O)O)CC2)n1
-4.46

Fill in reported Percent Effect for this entry: Cc1cccc(N2CCN(CCNC(=O)C(C)n3cncn3)CC2)c1 (centres undefined)
15.6

Name the recorded Percent Effect of the item O=C(c1ccc(OCC2CC2)nc1)N1CCCC(n2ccnc2)C1 (centres undefined) in your answer.
-43.4

Specify Percent Effect for COc1cc2nc3n(c(=O)c2cc1OC)CCN(C)CC3 and stop.
-7.54

Provide Percent Effect value for the following molecule: Cc1oc(-c2ccco2)nc1CC(=O)N1CCN(CC(C)(C)O)CC1
30.6

Kindly indicate its recorded Percent Effect. Item: Cc1ccccc1C1(C(=O)NCCN2CCCC2)CCOCC1
12.4

Give the reported Percent Effect for this molecule. CCOc1ccc(Cl)cc1CNCCCn1ccnc1
-32.5

Please look at this molecule and report its Percent Effect: COc1ccc2c(c1)CC(NC(=O)NCc1cccs1)CO2 (centres undefined)
-8.88

Name the recorded Percent Effect of the item Cc1ccc(CC(=O)NCCCNS(C)(=O)=O)cc1 in your answer.
-16.3

Return Percent Effect for the following molecule: COCc1cnc2n1CCN(C(=O)C1=CCCCC1)C2C (centres undefined)
-61.5

Item CC(C)N(CC(N)=O)Cc1csc(COc2ccc(F)cc2)n1 : provide Percent Effect
1.96

Hello, please tell me recorded Percent Effect for this one: Cn1ccnc1CN1CCC2(COCCN(Cc3ccsc3)C2)C1 (centres undefined)
-19.8

Quickly give me recorded Percent Effect for CN(Cc1ccsc1)C(=O)c1cccc(F)c1
-0.747

Hello, please tell me recorded Percent Effect for this one: O=C(c1ccc(F)cc1Cl)N1CCC(Nc2cccnn2)CC1
-21.1

Fill in reported Percent Effect for this entry: COc1cccc2c1OCC(CNC(=O)CCCN1CCOCC1)C2 (centres undefined)
5.01

Find the measured Percent Effect of Fc1cnc(N2CCC3(COCc4cnc(NCC5CC5)nc43)C2)nc1 (centres undefined) and report it.
2.48

Assign Percent Effect to the following record: Cc1ccoc1C(=O)N1CCO[C@H]2[C@H](OCC3CCOCC3)CC[C@@H]21
-15.8

Name the recorded Percent Effect of the molecule listed here: Cc1cnn(CC2CN(Cc3nc4ccccc4nc3C)CCO2)c1 (centres undefined)
-0.0617

Determine from records and report Percent Effect for CCN(C)Cc1cnc(S(=O)(=O)CC)n1CCOC
-0.758

For the molecule Cc1nccc(CN2CC[C@H](Oc3cccc(F)c3)[C@@](C)(O)C2)n1 , report Percent Effect.
-25.4

Reference source: ChEMBL document CHEMBL3988442
